Tested on: Candida albicans
Test: Antifungal activity against Candida albicans assessed as growth inhibition by CLSI broth microdilution method
Format: functional
Experimental readout: MIC
Please state the value followed by its unit.

Please review the following examples before continuing.
CC(=O)N1CCN(c2ccc(OCC3COC(Cn4ccnc4)(c4ccc(Cl)cc4Cl)O3)cc2)CC1 (stereo unspecified) = 100 µg/mL
Cc1cc(NC(=O)CSc2nc3ccccc3s2)no1 = 200 µg/mL
Cc1cc(NC(=O)CSc2nncn2C)no1 = 100 µg/mL
Cc1cc(NC(=O)CSc2nc3ccccc3[nH]2)no1 = 200 µg/mL
Cc1cc(NC(=O)CSc2ccccc2)no1 = 200 µg/mL

Give its MIC value. Item: Cc1cc(NC(=O)CSc2nnnn2C)no1 100 µg/mL

Give its MIC value. Item: Cc1cc(NC(=O)CSc2nnnn2-c2ccccc2)no1 100 µg/mL

Give its MIC value. Item: Cc1cc(NC(=O)CSc2nc[nH]n2)no1 100 µg/mL

Give its MIC value. Item: Cc1cc(NC(=O)CSc2nnc(C)s2)no1 100 µg/mL

Give its MIC value. Item: Cc1cc(NC(=O)CSc2nccn2C)no1 100 µg/mL

Give its MIC value. Item: Cc1cc(NC(=O)CSc2nc3ccccc3o2)no1 200 µg/mL

---

Tested on: C6
Assay: Cytotoxicity against Rattus norvegicus (rat) C6 cells assessed as cell viability after 24 hr by MTT assay
Assay type: functional, cell-based
Conditions: C6, 24 h
Criterion: IC50 strictly less than 400 nM. Met: criterion met. Not met: criterion not met.

Check out these entries, answers already filled in.
Cc1cc(NC(=O)CSc2nncn2C)no1 = criterion not met
Cc1cc(NC(=O)CSc2nc3ccccc3s2)no1 = criterion met
Cc1cc(NC(=O)CSc2nnnn2-c2ccccc2)no1 = criterion not met
Cc1cc(NC(=O)CSc2nc3ccccc3[nH]2)no1 = criterion met
Cc1cc(NC(=O)CSc2nc3ccccc3o2)no1 = criterion not met
Cc1cc(NC(=O)CSc2nccn2C)no1 = criterion not met
Cc1cc(NC(=O)CSc2nnc(C)s2)no1 = criterion not met
Cc1cc(NC(=O)CSc2nnnn2C)no1 = criterion not met

Next up:
Dear reviewer, please state whether Cc1cc(NC(=O)CSc2nc[nH]n2)no1 has IC50 strictly beneath 400 nM. criterion not met
